z-score values by entry
method notes: PSAC antagonists in infected red cells, primary screen, cell-based, P. falciparum Indochina, OD700, 2 h (AID 1155);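 note: lysis reports solute entry through the parasite surface anion channel PSAC; channel blockers reduce lysis of infected cells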
condition summary: P. falciparum Indochina infected erythrocytes, osmotic lysis OD700; higher = more signal, called active from +8 up or from −8 down
Answer with a number only.

Some compounds with known z-score results, for comparison:
CCCCCCc1nc(C2CC2)c(C)c2c1[Si](C(C)C)(C(C)C)OC2 = 0.176
CCC(=O)[C@]12O[C@@]3([C@@H]4C(=O)OCC[C@@H]41)N(Cc1ccccc1)C(C)=C(C(=O)OC)[C@@H](c1ccccc1)N3C2=O = -1.22
CCN1C(C)=C(C(=O)OC)[C@@H](c2ccccc2)N2C(=O)[C@@]3(C(=O)OC)O[C@@]12[C@@H]1C(=O)N(C)C(=O)[C@@H]13 = -1.13
O=C1C[C@@](C(=O)NCCN2CCOCC2)(c2ccc([N+](=O)[O-])cc2)[C@@H](c2ccc(CO)cc2)N1C1CCCCC1 = 0.834
CSCC[C@@H]1NC(=O)CC=C[C@@H](C)COC(=O)[C@H](CCSC)NC(=O)CC=C[C@@H](C)COC1=O = -0.774

z-score measured on `O=C1c2ccccc2[C@](Cc2ccccc2I)(C(=O)NCc2ccccc2)[C@H](c2ccc(CO)cc2)N1Cc1ccccc1C(F)(F)F` = -0.664

Entry `CCOC(=O)[C@H]1C/C=C/C[C@H](C(=O)OCC)C(=O)O[C@H]2[C@@H](OC)O[C@H](CO)[C@@H](OC(=O)Nc3ccc(Br)cc3)[C@@H]2OC1=O` , z-score reported as 1.8
